# assayTarget: natural β-amyloid peptide β-AP1-40 (human)
# Sequence (peptide, as listed by the source): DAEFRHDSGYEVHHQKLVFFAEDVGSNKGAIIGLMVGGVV
# assayOverview: cell-based or functional assay
Ends that are not written are not given here. * marks the point of attachment. Cholyl = C[C@H](CCC(=O)*)[C@H]1CC[C@H]2[C@@H]3[C@H](O)C[C@@H]4C[C@H](O)CC[C@]4(C)[C@H]3C[C@H](O)[C@]12C; iminobiotinyl = N=C1N[C@H]2[C@H](CS[C@H]2CCCCC(=O)*)N1; FICO = 5-(and 6-)-carboxyfluoresceinyl; NANA = N-acetyl neuraminyl
// reported % Inhibition of Plateau; nucleation assay; 100 mole % for each item listed
I only need the number, in %, no unit after it.

Worked set:
{NANA}-AEDVGSNKGAIIGLM [NANA-Aβ21-35]; 53
Cholyl-HDSGYEVHHQKLVFF [cholyl-Aβ6-20]; 100
{FICO}-AEDVGSNKGAIIGLM [FICO-Aβ21-35]; 25
iminobiotinyl-AEDVGSNKGAIIGLM [iminobiotinyl-Aβ21-35]; 66
Cholyl-KLVFFAEDVGSNKGA [cholyl-Aβ16-30]; 100

Task: Specify measured % Inhibition of Plateau; nucleation assay; 100 mole % for Cholyl-SNKGAIIGLMVGGVV [cholyl-Aβ26-40] .
Result: 87

Task: Specify measured % Inhibition of Plateau; nucleation assay; 100 mole % for {NANA}-HDSGYEVHHQKLVFF [NANA-Aβ6-20] .
Result: 64

Task: Specify measured % Inhibition of Plateau; nucleation assay; 100 mole % for iminobiotinyl-KLVFFAEDVGSNKGA [iminobiotinyl-Aβ16-30] .
Result: 55
